# measurement-target: human LMPTP-A (Homo sapiens)
# Sequence (P24666 whole entry): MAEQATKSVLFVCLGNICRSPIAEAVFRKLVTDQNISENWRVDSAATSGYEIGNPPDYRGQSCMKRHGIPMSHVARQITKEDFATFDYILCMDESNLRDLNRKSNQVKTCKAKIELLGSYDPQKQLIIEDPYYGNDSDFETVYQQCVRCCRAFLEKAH
# method-description: Isothermal titration calorimetry
# Format: binding
# condition-info: Kd, phosphate buffer
metric: Kd

Query: For the compound N#Cc1ccccc1-c1cc(NCCCN2CCCCC2)c2ccccc2n1 [Compd. 18] , what Kd is on record?
Response: 10 µM

====

# measurement-target: UniProt P24666
# method-description: Isothermal titration calorimetry
# Format: binding
# condition-info: Kd, Tris buffer, no vanadate
metric: pKd
// field semantics: pKd = negative decimal log of concentration (mol/L)

Query: Look up pKd: N#Cc1ccccc1-c1cc(NCCCN2CCCCC2)c2ccccc2n1 [Compd. 18]
Response: 5.10
